Each recorded value in this set is attributed to patent US12252481B2.

tested on: human beta-coronavirus OC43; experiment: OC43 coronavirus antiviral assay in HeLa cells (cytopathic effect, cell-titer-glo); assay type: cell-based; conditions: Betacoronavirus 1, OC43, HeLa, 144 h, 6 days at 33° C., read-out: EC50 (class)

Compound	EC50
CC(C)(C)[C@H](NC(=O)C(F)(F)F)C(=O)N1C[C@H]2[C@@H]([C@H]1C(=O)N[C@H](C#N)C[C@@H]1OCCNC1=O)[C@H]1C=C[C@@H]2C1 [Compound 114]	< 100 nM
CC(C)(C)[C@H](NC(=O)C(F)(F)F)C(=O)N1C[C@H]2[C@@H]([C@H]1C(=O)N[C@H](C#N)C[C@@H]1OCC3(CC3)NC1=O)[C@H]1C=C[C@@H]2C1 [Compound 120]	< 100 nM
CC(C)(C)[C@H](NC(=O)C(F)(F)F)C(=O)N1C[C@H]2[C@@H]([C@H]1C(=O)N[C@H](C#N)C[C@@H]1Oc3ccncc3NC1=O)[C@H]1C=C[C@@H]2C1(F)F [Compound 111]	< 100 nM
N#C[C@H](C[C@@H]1CCNC1=O)NC(=O)[C@@H]1[C@@H]2[C@H](CN1C(=O)[C@@H]1C[C@]13CCc1ccccc13)[C@@H]1C=C[C@H]2C1 (single isomer, unassigned) [Example 38]	1000 to 10000 nM
COCC(C)(C)[C@H](NC(=O)C(F)(F)C(F)(F)F)C(=O)N1C[C@H]2[C@@H]([C@H]1C(=O)N[C@H](C#N)C[C@@H]1CCNC1=O)[C@H]1C=C[C@@H]2C1 [Compound 100]	< 100 nM
CC(C)(C)[C@H](NC(=O)C(F)(Cl)Cl)C(=O)N1C[C@@H]2[C@@H]3CC[C@@H](C3)[C@@H]2[C@H]1C(=O)N[C@H](C#N)C[C@@H]1CCNC1=O [Compound 67]	< 100 nM
CC(C)(C)[C@H](NC(=O)C(F)(F)F)C(=O)N1C[C@@H]2[C@@H]3CC[C@@H](C3)[C@@H]2[C@H]1C(=O)N[C@H](C#N)CC1CC2(CC(F)(F)C2)NC1=O (stereo partly shown) [Compound 104]	100 to 1000 nM
CC(C)(C)[C@H](NC(=O)C(F)F)C(=O)N1C[C@H]2[C@@H]([C@H]1C(=O)N[C@H](C#N)C[C@@H]1CCNC1=O)[C@H]1C=C[C@@H]2C1 [Compound 72]	< 100 nM
C=CC(C)(C)[C@H](NC(=O)C(F)(F)F)C(=O)N1C[C@H]2[C@@H]([C@H]1C(=O)N[C@H](C#N)C[C@@H]1CCNC1=O)[C@H]1C=C[C@@H]2C1 [Example 28]	< 100 nM
CC(C)(C)[C@H](NC(=O)C(F)(F)F)C(=O)N1C[C@@H]2[C@@H]3CC[C@@H](C3)[C@@H]2[C@H]1C(=O)N[C@H](C#N)CC1Cn2nccc2NC1=O (relative stereo) [Compound 17a]	< 100 nM

###

target: HRV3C (Human rhinovirus 14); construct: 3CLpro and HRV3C was added using a Multidrop Combi; assay: biochemical; parameters: species or system HRV; settings: HRV3C, 30 mins preincubation, SAMDI-MS; read-out: HRV IC50 (bound)
Sequence (P03303 1538-1719): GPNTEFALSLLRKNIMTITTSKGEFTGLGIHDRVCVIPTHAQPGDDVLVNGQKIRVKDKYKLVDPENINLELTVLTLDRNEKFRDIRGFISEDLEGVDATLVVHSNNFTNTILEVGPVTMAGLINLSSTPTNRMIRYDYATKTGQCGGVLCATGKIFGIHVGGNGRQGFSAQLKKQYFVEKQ
pIC50: −log10 of the molar value.
Experimental readout: pIC50

Molecule	Reported
C[C@@H](OC(F)F)[C@H](NC(=O)C(F)(F)F)C(=O)N1C[C@H]2[C@@H]([C@H]1C(=O)N[C@H](C#N)C[C@@H]1CCNC1=O)[C@H]1C=C[C@@H]2C1	< 6.30
CC(C)(C)[C@H](NC(=O)C(F)(F)F)C(=O)N1C[C@H]2[C@@H]([C@H]1C(=O)NC(C#N)Cc1ccc[nH]c1=O)[C@H]1C=C[C@@H]2C1 (single isomer, unassigned)	< 5.00
CC(C)(C)[C@H](NC(=O)C(F)(F)F)C(=O)N1C[C@H]2[C@@H]([C@H]1C(=O)N[C@H](C#N)CC1CC3(CC(F)(F)C3)NC1=O)[C@H]1C=C[C@@H]2C1 (mixture of isomers)	< 5.00
[2H]C1([2H])C[C@@H](C[C@@H](C#N)NC(=O)[C@@H]2[C@@H]3[C@H](CN2C(=O)[C@@H](NC(=O)C(F)(F)F)C(C)(C)C)[C@@H]2C=C[C@H]3C2)C(=O)N1	< 5.00
CC(C)(C)[C@H](NC(=O)C(F)(F)F)C(=O)N1C[C@H]2[C@@H]([C@H]1C(=O)N[C@H](C#N)C[C@@H]1Oc3ccncc3NC1=O)[C@H]1C=C[C@@H]2C1	< 6.30
